The measured values listed here are drawn from patent US20220380829A1.

- Test system: Candida tropicalis
- assay.remarks: Broth microdilution (M27-A3, M27-S4), gold standard culture-based AST
- Assay type: cell-based
- setup.conditions: blind-2
readout: Resistance profiles by broth microdilution (the gold standard)

CC[C@H](C)C[C@H](C)CCCCCCCCC(=O)N[C@H]1C[C@@H](O)[C@@H](NCCN)NC(=O)[C@@H]2[C@@H](O)CCN2C(=O)[C@H]([C@H](O)CCN)NC(=O)[C@H]([C@H](O)[C@@H](O)c2ccc(O)cc2)NC(=O)[C@@H]2C[C@@H](O)CN2C(=O)[C@H]([C@@H](C)O)NC1=O: S
CCC(C)n1ncn(-c2ccc(N3CCN(c4ccc(OCC5COC(Cn6cncn6)(c6ccc(Cl)cc6Cl)O5)cc4)CC3)cc2)c1=O (centres unmarked): S
C[C@@H](c1ncncc1F)[C@](O)(Cn1cncn1)c1ccc(F)cc1F: S
Nc1nc(=O)[nH]cc1F: S

Consider the record given below.
Entry `C[C@@H]1[C@H](O)[C@@H](C)/C=C/C=C/C=C/C=C/C=C/C=C/C=C/[C@H](O[C@@H]2O[C@H](C)[C@@H](O)[C@H](N)[C@@H]2O)C[C@@H]2O[C@](O)(C[C@@H](O)C[C@@H](O)[C@H](O)CC[C@@H](O)C[C@@H](O)CC(=O)O[C@H]1C)C[C@H](O)[C@H]2C(=O)O` has what Resistance profiles by broth microdilution (the gold standard)?
S
